# Tested on: MMC2
# experimental.details: MTT cytotoxicity in NER-deficient cells, 72 h
# Type: cell-based, Chinese hamster
# settings: IC50(CHOK1)/IC50(MMC2)
measurement.label: Index F

INPUT: Entry Cc1cc(Nc2ncc(Cl)c(Nc3ccccc3S(=O)(=O)C(C)C)n2)c(OC(C)C)cc1C1CCN(C(=O)[O][Pt]([OH])([Cl])[Cl])CC1.N.N [compound 6, ctc-[Pt(NH3)2(ceritinib)(OH)Cl2]] has what Index F?
OUTPUT: 3.79(*)

INPUT: Entry Cc1cc(Nc2ncc(Cl)c(Nc3ccccc3S(=O)(=O)C(C)C)n2)c(OC(C)C)cc1C1CCN(C(=O)[O][Pt]([Cl])([Cl])[O]C(=O)CCCc2ccccc2)CC1.N.N [compound 7, ctc-[Pt(NH3)2(ceritinib)(PhB)Cl2]] has what Index F?
OUTPUT: 4.60(**)

INPUT: Entry N.N.[Cl][Pt][Cl] [cisPt, cisplatin, reference compound] has what Index F?
OUTPUT: 9.23(***)
